System: HeLa spheroids
Experiment: Cytotoxicity, three-dimensional (spheroid) assay
Assay type: cell-based
Details: human, 24 h
Description: For the experiments with the three-dimensional (3D) cultures, we used a 384-well plate format and applied the protocol introduced by Sirenko et al.,[35] with a few modifications. […] The IC50 values and the closed/open isomer activity ratios (Table 2) were calculated, as in the monolayer cell culture experiments. […] The cells were maintained identically to a 2D cell culture protocol. […] The collected data were processed using INCarta 1.13 and analyzed using GraphPad Prism 10.
Non-standard residues stand in square brackets, D forms with d. Residues, ends and D or L forms follow the SMILES beside them. Orn = NCCC[C@H](N)C(=O)O
quantity_name: IC50 (µM)
Numeric only. Scale: µM

Field request: IC50 | item: CC(C)C[C@@H]1NC(=O)[C@H](CCCN)NC(=O)[C@H](C(C)C)NC(=O)[C@@H]2CCCN2C(=O)[C@@H](Cc2ccccc2)NC(=O)[C@H](CC(C)C)NC(=O)[C@H](CCCN)NC(=O)[C@H](C(C)C)NC(=O)[C@@H]2CCCN2C(=O)[C@@H](Cc2ccccc2)NC1=O [Gramicidin S, gramicidin S] (cyclo(V[Orn]L[dF]PV[Orn]L[dF]P))
2.9
